Documented pKd across a set of sequences
Biological target: GST-DAZAP1 (UniProt Q9JII5)
Sequence: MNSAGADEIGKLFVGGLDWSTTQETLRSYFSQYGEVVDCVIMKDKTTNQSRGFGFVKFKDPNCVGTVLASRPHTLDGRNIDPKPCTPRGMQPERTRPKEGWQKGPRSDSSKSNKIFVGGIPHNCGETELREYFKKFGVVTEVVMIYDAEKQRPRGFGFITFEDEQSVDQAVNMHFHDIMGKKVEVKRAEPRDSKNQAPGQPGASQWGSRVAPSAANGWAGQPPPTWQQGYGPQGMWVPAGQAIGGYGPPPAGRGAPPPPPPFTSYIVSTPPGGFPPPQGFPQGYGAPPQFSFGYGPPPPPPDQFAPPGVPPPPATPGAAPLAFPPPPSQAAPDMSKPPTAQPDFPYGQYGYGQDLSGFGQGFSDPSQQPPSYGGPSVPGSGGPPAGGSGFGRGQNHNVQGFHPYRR
Experiment: EMSA
Conditions: 20 mM HEPES pH 7.6, 3 mM MgCl2, 40 mM KCl, 2 mM DTT, 5% glycerol, 5 mg/ml heparin; room temperature, 15 min; native 5% PAGE in 0.25x TBE; RNA 0.5-3.0 nM for Kd
pKd: −log10 of the molar value.
quantityKind: pKd

In [3]: df
Out[3]:
                              chainsequence  quantitykind  endpointvalue
0  AAGGUGAUAUUUAGUAUAUAGUGACACGUAAACAUUUAUG [Pot1a-Wt]           pKd           8.11
1      ACCUCCUAAUUUGUUCUUCAUUUCUU [Crem-dA]           pKd           6.77
2  AAGUGUGAUAUAAUUCACUGGUAGUUUAUCAUAGAGGU [Crisp2-WtB]           pKd           7.47
3  AUCAUAGAGGUAGCAUUUUAGUUUAUUCUGUGAACUUCAAAAUUGACU [Crisp2-WtC]           pKd           7.82
4  AAGGUGAUAUUUAUGACACGUAAACAUUUAUG [Pot1a-dE]           pKd           6.52
